- Tested on: Pseudomonas aeruginosa ATCC 10145
- Assay Remarks: Kill curve assay (MBC), planktonic cells
- Type: cell-based
- Settings: Pseudomonas aeruginosa, ATCC10145; minimal bactericidal concentration, planktonic cells, 24 h challenge, LB medium; read-out: MBC P. aeruginosa
Assay Metric: MBC

Use the examples below as a reference point.
[
  {
    "Compound": "O=C(c1cc(Cl)cc(Cl)c1O)c1[nH]c(Cl)c(Cl)c1[N+](=O)[O-] [PM 5d]",
    "Reported Value": "30 µM"
  },
  {
    "Compound": "O=C(c1cc(Cl)c([N+](=O)[O-])[nH]1)c1cc(Cl)cc(Cl)c1O [PM 5b]",
    "Reported Value": "> 100 µM"
  },
  {
    "Compound": "O=C(c1cc(Br)cc(Br)c1O)c1[nH]c(Br)c(Br)c1Br [PM 1, reference compound]",
    "Reported Value": "> 100 µM"
  },
  {
    "Compound": "COc1c(Br)cc(Br)cc1C(=O)c1c(Br)c(Br)c(Br)n1C [PM 2]",
    "Reported Value": "> 100 µM"
  },
  {
    "Compound": "O=C(c1cc(Br)c([N+](=O)[O-])[nH]1)c1cc(Cl)cc(Cl)c1O [PM 5c]",
    "Reported Value": "> 100 µM"
  }
]

Attention now shifts to the item below.
Given O=C(c1cc([N+](=O)[O-])c[nH]1)c1cc(Cl)cc(Cl)c1O [PM 5a] , state its recorded MBC.
> 100 µM
